Molecular target: CD94/NKG2A (Homo sapiens, UniProt P26715+Q13241)
Sequence (P26715 94-233 limits assumed): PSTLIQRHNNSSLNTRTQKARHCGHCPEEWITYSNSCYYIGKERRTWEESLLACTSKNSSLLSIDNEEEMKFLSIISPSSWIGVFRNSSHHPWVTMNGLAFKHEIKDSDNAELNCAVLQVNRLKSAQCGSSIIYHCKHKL
Sequence (Q13241 32-179 limits assumed): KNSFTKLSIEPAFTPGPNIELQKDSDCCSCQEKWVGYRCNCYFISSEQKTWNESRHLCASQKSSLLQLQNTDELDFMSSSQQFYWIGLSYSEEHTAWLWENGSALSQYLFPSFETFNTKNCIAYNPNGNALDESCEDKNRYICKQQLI
Test: Steady-state surface plasmon resonance of peptide-HLA-E complex with CD94/NKG2A
Assay type: binding
Details: CD94/NKG2A concentration 0.8 μM
Where no end group is shown, it is not given here.
binding of peptide-HLA-E complex to CD94/NKG2A normalized to a fitted Rmax strictly under 0.2 means class 1; at 0.2 or over means class 0.

Below, 2 sequences whose answers are already recorded.
biopolymer_sequence="VNPGRSLFL [human5, VNPGRSLFL]" group="class 0"
biopolymer_sequence="TGPWRSLWI [human3, TGPWRSLWI]" group="class 1"

State whether 0.2 exceeds binding of peptide-HLA-E complex to CD94/NKG2A normalized to a fitted Rmax recorded for TAPARTMFL [human13, TAPARTMFL] .
class 1

Next sequence: QMPSRSLLF [human1, QMPSRSLLF]
class 0

Next sequence: TLPKRGLFL [human2, TLPKRGLFL]
class 1
